experimental target: Free fatty acid receptor 1 (Homo sapiens)
Sequence (O14842 whole entry): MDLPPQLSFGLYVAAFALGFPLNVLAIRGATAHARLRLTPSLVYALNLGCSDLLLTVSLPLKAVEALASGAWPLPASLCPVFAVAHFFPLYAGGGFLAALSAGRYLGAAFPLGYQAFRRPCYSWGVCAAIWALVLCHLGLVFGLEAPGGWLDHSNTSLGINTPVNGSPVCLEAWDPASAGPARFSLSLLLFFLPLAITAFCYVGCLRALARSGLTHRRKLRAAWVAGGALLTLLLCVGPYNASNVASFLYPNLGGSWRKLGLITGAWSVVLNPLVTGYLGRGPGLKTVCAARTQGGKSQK
test summary: Agonist activity at human C-terminal eYFP-tagged FFA1 receptor expressed in HEK-293 cells assessed as beta-arrestin2 recruitment incubated for 5 mins by BRET assay
Format: cell-based, HEK293
pEC50: −log10 of the molar value.
measured endpoint: pEC50

compound: Cc1cc(Oc2ncc(C(F)(F)F)cc2Cl)ccc1CC1SC(=O)NC1=O (stereo not drawn)
measured endpoint: pEC50
result number: 7.26

I. CCCCCCCCCCCC(=O)O [DODECANOATE]
II. Cc1ccccc1C#Cc1ccc(CCC(=O)O)cc1
// compare measured pEC50 between I and II ; output the lower one Give the label of your selection.
I

###

experimental target: Free fatty acid receptor 1 (Homo sapiens)
test summary: Agonist activity at human C-terminal eYFP-tagged FFA1 receptor expressed in HEK-293 cells assessed as beta-arrestin2 recruitment incubated for 5 mins by BRET assay relative to TUG-770
Format: cell-based
recorded conditions: HEK293
measured endpoint: Emax (%)

compound smiles: Cc1cc(OCCCS(C)(=O)=O)cc(C)c1-c1cccc(COc2ccc3c(c2)OC[C@H]3CC(=O)O)c1
reading unit: %
result number: 89
--
compound smiles: Cc1ccccc1C#Cc1ccc(CCC(=O)O)cc1
reading unit: %
result number: 100
--
compound smiles: O=C(O)CCc1ccc(NCc2cccc(Oc3ccccc3)c2)cc1
reading unit: %
result number: 86
--
compound smiles: Cc1ccccc1-c1cccc(CNc2ccc(CCC(=O)O)cc2)c1
reading unit: %
result number: 114
